Origin of values: paper PMC6332036

Please provide measured melting point for the entries that follow.

The measured melting point associated with Cc1cc(N2CCOCC2)nc(-c2cccc(O)c2)c1C#N [Compound 10] reads 195 to 197 °C

Field melting point (entry COc1ccc(-c2cc(N3CCOCC3)nc(-c3cccc(O)c3)c2C#N)cc1OC [Compound 9e] ) reads 142 to 144 °C

Form: compound = N#Cc1c(-c2ccc(Oc3ccccc3)cc2)cc(N2CCOCC2)nc1-c1cccc(O)c1 [Compound 9b] ; melting point = 240 to 242 °C

# melting point (compound: COc1cccc(-c2cc(N3CCOCC3)nc(-c3cccc(O)c3)c2C#N)c1 [Compound 9d] ) is 208 to 209 °C (dec.)

# melting point of N#Cc1c(-c2cccnc2)cc(N2CCOCC2)nc1-c1cccc(O)c1 [Compound 9h] = 239 to 242 °C (dec.)

So for N#Cc1c(-c2ccccc2)cc(N2CCOCC2)nc1-c1cccc(O)c1 [Compound 9a] , the logged melting point turned out to be 221 to 223 °C (dec.)

Documented melting point of COc1ccc(-c2cc(N3CCOCC3)nc(-c3cccc(O)c3)c2C#N)cc1 [Compound 9c] : 216 to 217 °C

The value of melting point measured for the compound N#Cc1c(-c2ccncc2)cc(N2CCOCC2)nc1-c1cccc(O)c1 [Compound 9g] turned out to be 290 to 292 °C (dec.)

The compound listed as Cc1ccc(-c2cc(N3CCOCC3)nc(-c3cccc(O)c3)c2C#N)cc1C [Compound 9f] has a reported melting point of 117 to 120 °C (dec.)

* * *

I'd appreciate it if you could supply log10(IC50) values for the items below.
target: PI3Kα (Homo sapiens); assay: ADP-Glo luminescent lipid kinase assay, PI3Kα; conditions: recombinant enzyme 30 ng, 10 μM ATP, 30 min, room temperature; standard error (SE)
Sequence (P42336 whole entry): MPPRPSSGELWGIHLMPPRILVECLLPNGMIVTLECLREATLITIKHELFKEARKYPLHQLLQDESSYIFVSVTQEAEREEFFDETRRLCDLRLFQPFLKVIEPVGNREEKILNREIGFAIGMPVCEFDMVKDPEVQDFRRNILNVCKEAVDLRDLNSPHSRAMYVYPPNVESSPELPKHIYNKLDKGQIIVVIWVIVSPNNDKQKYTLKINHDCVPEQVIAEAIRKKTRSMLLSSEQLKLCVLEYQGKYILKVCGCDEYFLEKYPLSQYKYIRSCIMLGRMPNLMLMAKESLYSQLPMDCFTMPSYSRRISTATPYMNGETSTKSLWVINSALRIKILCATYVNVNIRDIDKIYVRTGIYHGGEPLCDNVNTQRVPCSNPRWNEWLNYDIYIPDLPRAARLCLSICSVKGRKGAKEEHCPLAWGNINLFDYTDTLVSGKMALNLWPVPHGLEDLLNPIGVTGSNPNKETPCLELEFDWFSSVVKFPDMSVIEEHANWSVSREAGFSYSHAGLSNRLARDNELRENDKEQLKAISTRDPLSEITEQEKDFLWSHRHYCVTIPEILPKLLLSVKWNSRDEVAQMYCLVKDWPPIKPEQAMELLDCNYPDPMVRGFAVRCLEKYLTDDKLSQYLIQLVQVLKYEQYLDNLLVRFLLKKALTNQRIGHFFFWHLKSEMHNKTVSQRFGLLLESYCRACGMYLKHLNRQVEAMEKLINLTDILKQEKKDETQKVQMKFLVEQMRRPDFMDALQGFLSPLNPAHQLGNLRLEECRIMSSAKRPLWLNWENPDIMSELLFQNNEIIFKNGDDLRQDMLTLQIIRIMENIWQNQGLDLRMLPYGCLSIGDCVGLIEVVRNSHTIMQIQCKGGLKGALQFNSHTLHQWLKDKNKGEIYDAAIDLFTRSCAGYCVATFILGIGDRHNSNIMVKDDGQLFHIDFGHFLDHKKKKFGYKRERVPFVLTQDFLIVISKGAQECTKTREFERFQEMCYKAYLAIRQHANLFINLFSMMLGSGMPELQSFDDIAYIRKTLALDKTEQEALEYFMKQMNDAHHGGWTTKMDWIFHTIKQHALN
Sequence (P27986 whole entry partner): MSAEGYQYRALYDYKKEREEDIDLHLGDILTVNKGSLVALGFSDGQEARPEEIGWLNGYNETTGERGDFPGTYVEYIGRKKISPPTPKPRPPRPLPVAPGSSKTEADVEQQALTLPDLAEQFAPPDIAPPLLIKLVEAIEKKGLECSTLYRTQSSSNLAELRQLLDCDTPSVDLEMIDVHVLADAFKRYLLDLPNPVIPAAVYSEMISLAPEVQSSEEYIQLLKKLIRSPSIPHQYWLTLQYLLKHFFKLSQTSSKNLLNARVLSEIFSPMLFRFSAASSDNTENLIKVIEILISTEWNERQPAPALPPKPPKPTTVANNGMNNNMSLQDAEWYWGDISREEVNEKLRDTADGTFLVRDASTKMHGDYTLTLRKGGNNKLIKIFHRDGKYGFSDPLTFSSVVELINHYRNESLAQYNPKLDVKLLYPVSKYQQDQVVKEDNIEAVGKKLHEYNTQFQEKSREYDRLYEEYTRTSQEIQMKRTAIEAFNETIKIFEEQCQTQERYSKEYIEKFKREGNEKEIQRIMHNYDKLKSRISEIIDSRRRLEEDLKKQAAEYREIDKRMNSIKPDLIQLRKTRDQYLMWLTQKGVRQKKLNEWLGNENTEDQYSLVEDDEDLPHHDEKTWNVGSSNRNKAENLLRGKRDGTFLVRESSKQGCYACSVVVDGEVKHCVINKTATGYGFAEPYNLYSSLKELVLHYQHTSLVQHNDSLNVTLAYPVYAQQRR
The base-10 logarithm of IC50, taken with IC50 in nM, is what appears here.

In plain terms, N#Cc1c(-c2ccc(Oc3ccccc3)cc2)cc(N2CCOCC2)nc1-c1cccc(O)c1 [Compound 9b] has a documented log10(IC50) of 2.80

According to the records, this compound N#Cc1c(-c2ccccc2)cc(N2CCOCC2)nc1-c1cccc(O)c1 [Compound 9a] displays log10(IC50) of 2.11

GET /value?item= N#Cc1c(-c2ccncc2)cc(N2CCOCC2)nc1-c1cccc(O)c1 [Compound 9g] &field=log10(IC50) returns 3.09

Sample COc1cccc(-c2cc(N3CCOCC3)nc(-c3cccc(O)c3)c2C#N)c1 [Compound 9d] ; log10(IC50) observed: 2.80

// field: log10(IC50); key: COc1ccc(-c2cc(N3CCOCC3)nc(-c3cccc(O)c3)c2C#N)cc1OC [Compound 9e] ; value = 2.92

The measured log10(IC50) associated with N#Cc1c(-c2cccnc2)cc(N2CCOCC2)nc1-c1cccc(O)c1 [Compound 9h] reads 2.99

Form field log10(IC50), entry Cc1cc(N2CCOCC2)nc(-c2cccc(O)c2)c1C#N [Compound 10] : 3.07

Looking up COc1ccc(-c2cc(N3CCOCC3)nc(-c3cccc(O)c3)c2C#N)cc1 [Compound 9c] , I see its log10(IC50) listed as 3.25

* * *

target: PI3Kβ (Homo sapiens, UniProt P42338); assay: ADP-Glo luminescent lipid kinase assay, PI3Kβ; details: recombinant enzyme 30 ng, 10 μM ATP, 1 h, room temperature; standard error (SE)
Sequence (P42338 whole entry): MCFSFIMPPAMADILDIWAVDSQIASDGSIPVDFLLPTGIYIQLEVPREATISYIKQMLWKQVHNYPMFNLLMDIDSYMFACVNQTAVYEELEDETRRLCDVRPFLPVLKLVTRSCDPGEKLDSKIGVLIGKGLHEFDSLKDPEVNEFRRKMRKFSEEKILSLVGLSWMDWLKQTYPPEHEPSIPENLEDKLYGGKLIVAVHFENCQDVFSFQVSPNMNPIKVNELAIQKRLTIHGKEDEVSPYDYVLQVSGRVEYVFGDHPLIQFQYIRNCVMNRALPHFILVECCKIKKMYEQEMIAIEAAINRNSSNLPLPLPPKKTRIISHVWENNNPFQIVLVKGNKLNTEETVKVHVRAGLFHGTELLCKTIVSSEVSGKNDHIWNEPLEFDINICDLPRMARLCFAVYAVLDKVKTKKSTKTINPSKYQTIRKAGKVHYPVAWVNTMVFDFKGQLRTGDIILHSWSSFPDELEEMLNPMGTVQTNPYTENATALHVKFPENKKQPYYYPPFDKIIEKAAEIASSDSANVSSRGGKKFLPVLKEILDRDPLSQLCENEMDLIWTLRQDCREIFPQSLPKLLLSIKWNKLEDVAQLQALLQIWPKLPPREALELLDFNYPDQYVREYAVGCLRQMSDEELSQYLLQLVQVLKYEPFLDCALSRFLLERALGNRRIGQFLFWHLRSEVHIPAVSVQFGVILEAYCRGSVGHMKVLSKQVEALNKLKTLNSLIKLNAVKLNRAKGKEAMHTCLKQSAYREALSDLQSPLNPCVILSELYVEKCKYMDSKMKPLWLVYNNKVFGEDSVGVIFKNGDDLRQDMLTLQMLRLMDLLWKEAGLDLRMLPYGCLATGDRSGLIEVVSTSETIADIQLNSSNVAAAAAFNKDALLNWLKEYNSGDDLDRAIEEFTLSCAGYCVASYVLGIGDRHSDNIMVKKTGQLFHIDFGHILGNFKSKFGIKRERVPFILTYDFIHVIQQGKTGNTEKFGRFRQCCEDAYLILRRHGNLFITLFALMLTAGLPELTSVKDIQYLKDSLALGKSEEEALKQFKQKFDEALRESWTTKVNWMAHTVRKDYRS
Sequence (P27986 whole entry partner): as the sequence (P27986 whole entry partner) above
PARAMETER MEASURED: IC50 (µM)
Numbers only; they are read as µM.

Noted for COc1ccc(-c2cc(N3CCOCC3)nc(-c3cccc(O)c3)c2C#N)cc1OC [Compound 9e] : its IC50 reads 6.48

Entry N#Cc1c(-c2ccccc2)cc(N2CCOCC2)nc1-c1cccc(O)c1 [Compound 9a] — recorded IC50 = 1.99

Consider COc1cccc(-c2cc(N3CCOCC3)nc(-c3cccc(O)c3)c2C#N)c1 [Compound 9d] . Its measured IC50 is 2.34

Field IC50 (entry Cc1cc(N2CCOCC2)nc(-c2cccc(O)c2)c1C#N [Compound 10] ) reads 1.55
